Test system: hTERT-HMEC
EXPERIMENTAL DETAILS: percentage of EdU-negative (G0-arrested) nuclei per well, 72 h; higher = more G0 arrest;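 note: secreted proteins added to cultured cells, EdU pulse at the end, nuclei found by Hoechst imaging, EdU status from nuclear versus surrounding ring intensity ratio, PBS as neutral control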
TEST SETTINGS: protein concentration 0.03125 µM; reference: sequence is the full UniProt precursor, the tested protein was the secreted form or ectodomain
MEASUREMENT NAME: percentage of EdU-negative (%)
State the answer as a number, implicitly in %.

Exercise: Using the record for MLAPGSSPGQRGRLALQWRQVSWITCWIALYAVEALPTCPFSCKCDSRSLEVDCSGLGLTTVPPDVPAATRTLLLLNNKLSALPSWAFANLSSLQRLDLSNNFLDRLPRSIFGDLTNLTELQLRNNSIRTLDRDLLRHSPLLRHLDLSINGLAQLPPGLFDGLLALRSLSLRSNRLQNLDRLTFEPLANLQLLQVGDNPWECDCNLREFKHWMEWFSYRGGRLDQLACTLPKELRGKDMRMVPMEMFNYCSQLEDENSSAGLDIPGPPCTKASPEPAKPKPGAEPEPEPSTACPQKQRHRPASVRRAMGTVIIAGVVCGVVCIMMVVAAAYGCIYASLMAKYHRELKKRQPLMGDPEGEHEDQKQISSVA [Q8N967] , report its percentage of EdU-negative.
Solution: 5.33

---

Test system: MCF7
EXPERIMENTAL DETAILS: percentage of EdU-negative (G0-arrested) nuclei per well, 72 h; higher = more G0 arrest
TEST SETTINGS: protein concentration 0.225 µM; reference: sequence is the full UniProt precursor, the tested protein was the secreted form or ectodomain
MEASUREMENT NAME: percentage of EdU-negative (%)
State the answer as a number, implicitly in %.

Known percentage of EdU-negative results, listed for orientation:
{"columns": ["SEQUENCE DATA", "percentage of EdU-negative (%)"],
 "data": [
  ["MAVKKIAIFGATGQTGLTTLAQAVQAGYEVTVLVRDSSRLPSEGPRPAHVVVGDVLQAADVDKTVAGQDAVIVLLGTRNDLSPTTVMSEGARNIVAAMKAHGVDKVVACTSAFLLWDPTKVPPRLQAVTDDHIRMHKVLRESGLKYVAVMPPHIGDQPLTGAYTVTLDGRGPSRVISKHDLGHFMLRCLTTDEYDGHSTYPSHQYQ", 23.4],
  ["MVTLRKRTLKVLTFLVLFIFLTSFFLNYSHTMVATTWFPKQMVLELSENLKRLIKHRPCTCTHCIGQRKLSAWFDERFNQTMQPLLTAQNALLEDDTYRWWLRLQREKKPNNLNDTIKELFRVVPGNVDPMLEKRSVGCRRCAVVGNSGNLRESSYGPEIDSHDFVLRMNKAPTAGFEADVGTKTTHHLVYPESFRELGDNVSMILVPFKTIDLEWVVSAITTGTISHTYIPVPAKIRVKQDKILIYHPAFIKYVFDNWLQGHGRYPSTGILSVIFSMHVCDEVDLYGFGADSKGNWHHYWENNPSAGAFRKTGVHDADFESNVTATLASINKIRIFKGR", 28.1],
  ["MDSYLLMWGLLTFIMVPGCQAELCDDDPPEIPHATFKAMAYKEGTMLNCECKRGFRRIKSGSLYMLCTGNSSHSSWDNQCQCTSSATRNTTKQVTPQPEEQKERKTTEMQSPMQPVDQASLPGHCREPPPWENEATERIYHFVVGQMVYYQCVQGYRALHRGPAESVCKMTHGKTRWTQPQLICTGEMETSQFPGEEKPQASPEGRPESETSCLVTTTDFQIQTEMAATMETSIFTTEYQVAVAGCVFLLISVLLLSGLTWQRRQRKSRRTI", 25.4],
  ["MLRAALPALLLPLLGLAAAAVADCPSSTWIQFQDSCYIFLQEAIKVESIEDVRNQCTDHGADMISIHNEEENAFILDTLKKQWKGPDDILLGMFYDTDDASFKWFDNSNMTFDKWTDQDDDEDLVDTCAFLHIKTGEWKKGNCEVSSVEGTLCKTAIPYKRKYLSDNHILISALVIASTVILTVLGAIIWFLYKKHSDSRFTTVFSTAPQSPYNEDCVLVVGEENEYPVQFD [Q8IX05]", 25.4],
  ["MAAWSPAAAAPLLRGIRGLPLHHRMFATQTEGELRVTQILKEKFPRATAIKVTDISGGCGAMYEIKIESEEFKEKRTVQQHQMVNQALKEEIKEMHGLRIFTSVPKR [Q53S33]", 26.7],
  ["MAAAVVLAAGLRAARRAVAATGVRGGQVRGAAGVTDGNEVAKAQQATPGGAAPTIFSRILDKSLPADILYEDQQCLVFRDVAPQAPVHFLVIPKKPIPRISQAEEEDQQLLGHLLLVAKQTAKAEGLGDGYRLVINDGKLGAQSVYHLHIHVLGGRQLQWPPG [Q9BX68]", 26.8],
  ["MQPRRQRLPAPWSGPRGPRPTAPLLALLLLLAPVAAPAGSGDPDDPGQPQDAGVPRRLLQQAARAALHFFNFRSGSPSALRVLAEVQEGRAWINPKEGCKVHVVFSTERYNPESLLQEGEGRLGKCSARVFFKNQKPRPTINVTCTRLIEKKKRQQEDYLLYKQMKQLKNPLEIVSIPDNHGHIDPSLRLIWDLAFLGSSYVMWEMTTQVSHYYLAQLTSVRQWKTNDDTIDFDYTVLLHELSTQEIIPCRIHLVWYPGKPLKVKYHCQELQTPEEASGTEEGSAVVPTELSNF", 28],
  ["MLPPMALPSVSWMLLSCLILLCQVQGEETQKELPSPRISCPKGSKAYGSPCYALFLSPKSWMDADLACQKRPSGKLVSVLSGAEGSFVSSLVRSISNSYSYIWIGLHDPTQGSEPDGDGWEWSSTDVMNYFAWEKNPSTILNPGHCGSLSRSTGFLKWKDYNCDAKLPYVCKFKD [Q6UW15]", 26.8]
]}

Exercise: Lookup: percentage of EdU-negative / MCF7 / `MRTIAILAAILLVALQAQAESLQERADEATTQKQSGEDNQDLAISFAGNGLSALRTSGSQARATCYCRTGRCATRESLSGVCEISGRLYRLCCR`
Solution: 25.5

Exercise: Lookup: percentage of EdU-negative / MCF7 / `MRLAVLFSGALLGLLAAQGTGNDCPHKKSATLLPSFTVTPTVTESTGTTSHRTTKSHKTTTHRTTTTGTTSHGPTTATHNPTTTSHGNVTVHPTSNSTATSQGPSTATHSPATTSHGNATVHPTSNSTATSPGFTSSAHPEPPPPSPSPSPTSKETIGDYTWTNGSQPCVHLQAQIQIRVMYTTQGGGEAWGISVLNPNKTKVQGSCEGAHPHLLLSFPYGHLSFGFMQDLQQKVVYLSYMAVEYNVSFPHAAQWTFSAQNASLRDLQAPLGQSFSCSNSSIILSPAVHLDLLSLRLQAAQLPHTGVFGQSFSCPSDRSILLPLIIGLILLGLLALVLIAFCIIRRRPSAYQAL`
Solution: 26.5

Exercise: Lookup: percentage of EdU-negative / MCF7 / MLPWLLVFSALGIQAWGDSSWNKTQAKQVSEGLQYLFENISQLTEKGLPTDVSTTVSRKAWGAEAVGCSIQLTTPVNVLVIHHVPGLECHDQTVCSQRLRELQAHHVHNNSGCDVAYNFLVGDDGRVYEGVGWNIQGVHTQGYNNISLGFAFFGTKKGHSPSPAALSAMENLITYAVQKGHLSSSYVQPLLGKGENCLAPRQKTSLKKACPGVVPRSVWGARETHCPRMTLPAKYGIIIHTAGRTCNISDECRLLVRDIQSFYIDRLKSCDIGYNFLVGQDGAIYEGVGWNVQGSSTPGYDDIALGITFMGTFTGIPPNAAALEAAQDLIQCAMVKGYLTPNYLLVGHSDVARTLSPGQALYNIISTWPHFKH [Q96LB8]
Solution: 25

Exercise: Lookup: percentage of EdU-negative / MCF7 / `MPMFIVNTNVPRASVPDGFLSELTQQLAQATGKPPQYIAVHVVPDQLMAFGGSSEPCALCSLHSIGKIGGAQNRSYSKLLCGLLAERLRISPDRVYINYYDMNAANVGWNNSTFA`
Solution: 26.3
